- systemTested: rat mGluR5 (Rattus norvegicus)
- Construct: expressed in transfected cells
- Sequence (P31424 21-1171 isoform P31424-2 limits assumed): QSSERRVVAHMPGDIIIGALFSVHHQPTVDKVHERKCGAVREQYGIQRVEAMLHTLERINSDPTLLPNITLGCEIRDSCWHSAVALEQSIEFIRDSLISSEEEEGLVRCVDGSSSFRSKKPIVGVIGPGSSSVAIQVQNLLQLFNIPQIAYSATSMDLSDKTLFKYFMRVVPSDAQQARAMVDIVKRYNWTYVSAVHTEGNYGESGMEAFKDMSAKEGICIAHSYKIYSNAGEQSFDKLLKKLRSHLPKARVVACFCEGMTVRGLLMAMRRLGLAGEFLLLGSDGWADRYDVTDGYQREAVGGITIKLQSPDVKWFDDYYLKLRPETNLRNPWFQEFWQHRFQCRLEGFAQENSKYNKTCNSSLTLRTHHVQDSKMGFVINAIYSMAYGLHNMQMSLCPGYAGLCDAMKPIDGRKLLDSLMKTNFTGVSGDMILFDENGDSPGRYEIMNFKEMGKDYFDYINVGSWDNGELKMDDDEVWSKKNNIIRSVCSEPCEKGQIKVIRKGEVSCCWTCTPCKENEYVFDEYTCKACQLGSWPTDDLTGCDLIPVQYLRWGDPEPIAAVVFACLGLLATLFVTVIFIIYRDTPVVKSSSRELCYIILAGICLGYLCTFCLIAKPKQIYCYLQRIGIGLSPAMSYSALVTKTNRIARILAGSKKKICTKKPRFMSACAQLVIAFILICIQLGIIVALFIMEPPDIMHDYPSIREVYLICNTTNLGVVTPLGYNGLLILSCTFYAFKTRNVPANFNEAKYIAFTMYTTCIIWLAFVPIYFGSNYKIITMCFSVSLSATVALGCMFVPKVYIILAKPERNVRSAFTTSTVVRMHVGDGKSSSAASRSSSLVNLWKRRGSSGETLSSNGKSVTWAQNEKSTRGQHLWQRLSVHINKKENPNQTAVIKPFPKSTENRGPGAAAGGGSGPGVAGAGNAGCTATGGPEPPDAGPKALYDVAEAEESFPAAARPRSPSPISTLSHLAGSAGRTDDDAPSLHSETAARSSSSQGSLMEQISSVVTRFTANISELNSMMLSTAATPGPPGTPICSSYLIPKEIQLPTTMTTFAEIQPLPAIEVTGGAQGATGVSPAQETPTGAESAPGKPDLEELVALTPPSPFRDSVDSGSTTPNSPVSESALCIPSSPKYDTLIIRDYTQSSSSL
- experimentalDetails: mGluR5 calcium mobilization assay (FDSS, Fluo-4) in HEK 293A cells stably expressing rat mGluR5
- Format: cell-based
- assayContext: HEK cells transfected with rat mGluR5; antagonism of glutamate EC80 response; ± = standard error of at least three experiments
- Experimental: Human embryonic kidney (HEK) cells transfected with rat or human mGluR5 were plated in clear bottom assay plates for assay in a Functional Drug Screening System (FDSS). […] Test compound was applied to cells 3 seconds after baseline readings were taken. […] The mGluR5 activity was determined using the calcium mobilization assays in human embryonic kidney cells as described herein below, wherein the human embryonic kidney cells were transfected with rat mGluR5. […]
pIC50: −log10 of the molar value.
pIC50 of 7 or higher: TRUE. Under 7: FALSE.

>  <testSmiles>
O=C(Nc1ccccn1)c1cc(Oc2cnc(F)c(F)c2)cn2ncnc12

>  <discreteLabel>
TRUE

$$$$
>  <testSmiles>
CCc1cccc(NC(=O)c2cc(Oc3cncnc3)cn3cnnc23)n1

>  <discreteLabel>
FALSE

$$$$
>  <testSmiles>
CCc1cccc(NC(=O)c2cc(Oc3cncc(Cl)c3)cn3cnnc23)n1

>  <discreteLabel>
FALSE

$$$$
>  <testSmiles>
COc1ccc(NC(=O)c2cc(Oc3cnc(C)nc3)cn3cnnc23)nc1

>  <discreteLabel>
FALSE

$$$$
>  <testSmiles>
O=C(Nc1ccc(F)cn1)c1cc(Oc2cncc(F)c2)cn2ccnc12

>  <discreteLabel>
TRUE

$$$$

====

- systemTested: rat mGluR5 (Rattus norvegicus)
- experimentalDetails: mGluR5 calcium mobilization assay (FDSS, Fluo-4) in HEK 293A cells stably expressing rat mGluR5
- assayContext: HEK cells transfected with rat mGluR5; antagonism of glutamate EC80 response; ± = standard error of at least three experiments
pIC50: −log10 of the molar value.
List of pIC50 values.

>  <testSmiles>
COc1ccc(NC(=O)c2cc(Oc3cncc(Cl)c3)cn3cnnc23)nc1

>  <qualifierSign>
=

>  <pIC50>
6.20

$$$$
>  <testSmiles>
O=C(Nc1ccc(F)cn1)c1cc(Oc2cncc(Cl)c2)cn2cnnc12

>  <qualifierSign>
=

>  <pIC50>
6.55

$$$$
>  <testSmiles>
CCc1cccc(NC(=O)c2cc(Oc3cncc(Cl)c3)cn3ncnc23)n1

>  <qualifierSign>
=

>  <pIC50>
6.58

$$$$
>  <testSmiles>
Cc1csc(NC(=O)c2cc(Oc3cnc(C)nc3)cn3ccnc23)n1

>  <qualifierSign>
=

>  <pIC50>
5.96

$$$$
>  <testSmiles>
Cc1csc(NC(=O)c2cc(Oc3cc(F)cnc3F)cn3ncnc23)n1

>  <qualifierSign>
=

>  <pIC50>
6.96

$$$$
>  <testSmiles>
Cc1ncc(Oc2cc(C(=O)Nc3ccc(F)cn3)c3nccn3c2)cn1

>  <qualifierSign>
=

>  <pIC50>
5.43

$$$$
>  <testSmiles>
Cc1ccc(NC(=O)c2cc(Oc3cncc(F)c3)cn3cnnc23)nc1

>  <qualifierSign>
=

>  <pIC50>
7.11

$$$$
>  <testSmiles>
Cc1csc(NC(=O)c2cc(Oc3cncc(F)c3)cn3c(C)nnc23)n1

>  <qualifierSign>
=

>  <pIC50>
6.37

$$$$
>  <testSmiles>
COc1ccc(NC(=O)c2cc(Oc3cncc(OC)c3)cn3cnnc23)nc1

>  <qualifierSign>
=

>  <pIC50>
5.40

$$$$
>  <testSmiles>
Cc1ncc(Oc2cc(C(=O)Nc3ccc(F)c(C)n3)c3nncn3c2)cn1

>  <qualifierSign>
<

>  <pIC50>
5.00

$$$$

Every entry's value here was drawn from patent US9844542B2.
